Hello, the source for this data is ChEMBL document CHEMBL2203275, in case you need it.

Target Desc: UniProt P18031
Sequence (P18031 whole entry): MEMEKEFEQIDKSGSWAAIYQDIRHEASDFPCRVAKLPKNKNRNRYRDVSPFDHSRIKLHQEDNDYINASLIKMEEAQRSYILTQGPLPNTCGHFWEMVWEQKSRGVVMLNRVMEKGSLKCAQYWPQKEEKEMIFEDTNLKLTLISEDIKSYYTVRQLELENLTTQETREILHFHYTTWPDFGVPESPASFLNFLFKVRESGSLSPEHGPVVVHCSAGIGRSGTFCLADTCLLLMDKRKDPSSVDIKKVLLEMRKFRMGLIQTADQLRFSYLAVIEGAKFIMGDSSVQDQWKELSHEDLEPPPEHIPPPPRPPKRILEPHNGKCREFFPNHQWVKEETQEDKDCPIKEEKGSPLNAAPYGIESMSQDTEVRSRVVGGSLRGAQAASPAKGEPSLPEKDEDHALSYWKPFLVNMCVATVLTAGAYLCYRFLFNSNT
Procedure Details: Inhibition of PTP1B using fluorescein 3,6 diphosphate as substrate measured for 1 hr in presence of 1 mM dithiothreitol
Parameter Measured: IC50 (µM)

Example entries begin here.
Molecule Smiles | Parameter Measured | Unit Of Measurement | Test Value
O=C1N=C(NCCCCCCCNC2=NC(=O)/C(=C/c3ccc(O)cc3)S2)S/C1=C\c1ccc(O)cc1 | IC50 | µM | 30.6
O=C(O)/C=C/c1ccc(/C=C2\SC(NCCCCCCCNC3=NC(=O)/C(=C/c4ccc(/C=C/C(=O)O)cc4)S3)=NC2=O)cc1 | IC50 | µM | 26.9

[A] O=C1N=C(NCCCCCCCCCNC2=NC(=O)/C(=C/c3ccc(O)cc3)S2)S/C1=C\c1ccc(O)cc1
[B] O=C1N=C(NCCCCCCCNC2=NC(=O)/C(=C/c3ccc(O)c(O)c3)S2)S/C1=C\c1ccc(O)c(O)c1
[C] O=C1N=C(NCCN2CCN(CCNC3=NC(=O)/C(=C/c4ccc(O)cc4)S3)CC2)S/C1=C\c1ccc(O)cc1
Task: Put the entries in order of IC50, starting with the largest number. Your answer should be the labels, listed in the requested order.
Result: C, B, A

* * *

Target Desc: M-phase inducer phosphatase 2 (Homo sapiens, UniProt P30305)
Sequence (P30305 whole entry): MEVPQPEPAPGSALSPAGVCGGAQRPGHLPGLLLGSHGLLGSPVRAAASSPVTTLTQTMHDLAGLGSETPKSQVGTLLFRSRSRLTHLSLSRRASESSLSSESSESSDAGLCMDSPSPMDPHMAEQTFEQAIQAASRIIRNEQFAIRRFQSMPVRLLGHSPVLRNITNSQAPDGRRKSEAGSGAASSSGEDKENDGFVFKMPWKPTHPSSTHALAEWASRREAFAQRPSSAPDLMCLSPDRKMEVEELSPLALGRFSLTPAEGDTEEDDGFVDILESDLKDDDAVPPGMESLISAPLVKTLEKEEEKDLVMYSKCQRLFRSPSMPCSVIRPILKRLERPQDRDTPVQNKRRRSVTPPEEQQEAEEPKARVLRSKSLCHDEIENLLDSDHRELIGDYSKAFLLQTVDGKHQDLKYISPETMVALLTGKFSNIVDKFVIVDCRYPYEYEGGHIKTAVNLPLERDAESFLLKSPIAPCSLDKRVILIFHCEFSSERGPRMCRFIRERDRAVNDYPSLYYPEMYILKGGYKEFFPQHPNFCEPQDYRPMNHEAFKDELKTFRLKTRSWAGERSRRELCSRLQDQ
Procedure Details: Inhibition of MBP-fused recombinant wild type CDC25B3 using fluorescein 3,6 diphosphate as substrate measured for 30 mins in presence of 10 mM dithiothreitol
Parameter Measured: IC50 (µM)
API: value field is a number in µM; no unit string.

Task: I have this compound here, `O=C1N=C(NCCCCCCCNC2=NC(=O)/C(=C/c3cc(Br)c(O)c(Br)c3)S2)S/C1=C\c1cc(Br)c(O)c(Br)c1` , and I need its recorded IC50.
Result: 3.1
